Target: hTG2 (Homo sapiens, UniProt P21980)
Sequence (P21980 1-687): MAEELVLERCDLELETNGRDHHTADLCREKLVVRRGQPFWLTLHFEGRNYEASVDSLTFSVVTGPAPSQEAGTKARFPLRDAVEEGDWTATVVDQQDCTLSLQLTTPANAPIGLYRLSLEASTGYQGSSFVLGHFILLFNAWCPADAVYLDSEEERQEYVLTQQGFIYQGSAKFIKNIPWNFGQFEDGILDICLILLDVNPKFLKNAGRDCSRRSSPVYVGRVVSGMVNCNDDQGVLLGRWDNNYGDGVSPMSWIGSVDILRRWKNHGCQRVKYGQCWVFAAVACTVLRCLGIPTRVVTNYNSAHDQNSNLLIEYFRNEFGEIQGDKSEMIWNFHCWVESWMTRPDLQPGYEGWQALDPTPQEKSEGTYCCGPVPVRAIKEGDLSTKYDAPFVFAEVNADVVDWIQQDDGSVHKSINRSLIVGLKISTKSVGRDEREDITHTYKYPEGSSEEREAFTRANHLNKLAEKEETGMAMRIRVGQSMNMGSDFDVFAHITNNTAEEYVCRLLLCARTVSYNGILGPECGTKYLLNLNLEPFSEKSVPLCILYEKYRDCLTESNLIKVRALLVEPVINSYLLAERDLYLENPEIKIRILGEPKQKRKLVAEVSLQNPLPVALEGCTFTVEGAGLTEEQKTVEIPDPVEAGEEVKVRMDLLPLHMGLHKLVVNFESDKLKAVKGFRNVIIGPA
Experiment: biochemical
Settings: fit to saturation kinetics model; 25° C., pH 6.95, 100 μM AL5; read-out: KI (converted)
Hi! Could you tag entries with Ki below 10 µM as condition met, and those at or above as condition not met? Much appreciated.

Query: Dear colleague, could you confirm whether Ki of C=CC(=O)NCCCC[C@H](NC(=O)Cc1cccc(Cl)c1Cl)C(=O)N1CCN(C(=O)c2cccc3ccccc23)CC1 falls below 10 µM? Thanks.
Response: condition met

Query: Bench note: check whether C=CC(=O)NCCCC[C@H](NS(C)(=O)=O)C(=O)N1CCN(C(=O)c2cccc3ccccc23)CC1 shows Ki below 10 µM
Response: condition not met

Query: Strictly below 10 µM: is that where Ki of C=CC(=O)NCCCC[C@H](NC(=O)c1ccc2ccccc2c1)C(=O)N1CCN(C(=O)c2cccc3ccccc23)CC1 sits?
Response: condition met

* * *

target: UniProtKB P21980; test: biochemical; conditions: fit to saturation kinetics model; 25° C., pH 6.95, 100 μM AL5; read-out: KI (converted)
readoutType: log10 Ki (log10 of the value in µM)
Please note: log10 values; quantity Ki; unit µM.

Consider the following illustrative entries.
Query: # input compound: C=CC(=O)NCCCC[C@H](NC(=O)Cc1ccc(Cl)c(Cl)c1)C(=O)N1CCN(C(=O)c2cccc3ccccc23)CC1 ; wanted: its log10 Ki
Response: -0.24

Query: Item under review: C=CC(=O)NCCCC[C@H](NC(=O)c1ccc(F)cc1)C(=O)N1CCN(C(=O)c2cccc3ccccc23)CC1 . Reported log10 Ki?
Response: 1.21

Query: # lookup: log10 Ki of C=CC(=O)NCCCC[C@H](NC(=O)CCCc1ccccc1)C(=O)N1CCN(C(=O)c2cccc3ccccc23)CC1
Response: 0.72

Others:
Query: Could you share which log10 Ki value was measured for C=CC(=O)NCCCC[C@H](NC(=O)C(C)(C)C)C(=O)N1CCN(C(=O)c2cccc3ccccc23)CC1 ?
Response: 0.94

Query: Which value of log10 Ki has been reported for C=CC(=O)NCCCC[C@H](NC(=O)Cc1ccccc1OC)C(=O)N1CCN(C(=O)c2cccc3ccccc23)CC1 in the records?
Response: 0.66

Query: log10 Ki for C=CC(=O)NCCCC[C@H](NC(=O)CC1CCCCC1)C(=O)N1CCN(C(=O)c2cccc3ccccc23)CC1 ?
Response: 1.09

Query: Find the recorded log10 Ki belonging to C=CC(=O)NCCCC[C@H](NC(=O)Cc1ccc(F)cc1)C(=O)N1CCN(C(=O)c2cccc3ccccc23)CC1 and report it.
Response: 0.62

Query: Can you share its log10 Ki? I mean this compound: C=CC(=O)NCCCC[C@H](NC(=O)Cc1cccc(F)c1)C(=O)N1CCN(C(=O)c2cccc3ccccc23)CC1
Response: 0.69

* * *

Biological target: hTG2 (Homo sapiens)
Sequence (P21980 1-687): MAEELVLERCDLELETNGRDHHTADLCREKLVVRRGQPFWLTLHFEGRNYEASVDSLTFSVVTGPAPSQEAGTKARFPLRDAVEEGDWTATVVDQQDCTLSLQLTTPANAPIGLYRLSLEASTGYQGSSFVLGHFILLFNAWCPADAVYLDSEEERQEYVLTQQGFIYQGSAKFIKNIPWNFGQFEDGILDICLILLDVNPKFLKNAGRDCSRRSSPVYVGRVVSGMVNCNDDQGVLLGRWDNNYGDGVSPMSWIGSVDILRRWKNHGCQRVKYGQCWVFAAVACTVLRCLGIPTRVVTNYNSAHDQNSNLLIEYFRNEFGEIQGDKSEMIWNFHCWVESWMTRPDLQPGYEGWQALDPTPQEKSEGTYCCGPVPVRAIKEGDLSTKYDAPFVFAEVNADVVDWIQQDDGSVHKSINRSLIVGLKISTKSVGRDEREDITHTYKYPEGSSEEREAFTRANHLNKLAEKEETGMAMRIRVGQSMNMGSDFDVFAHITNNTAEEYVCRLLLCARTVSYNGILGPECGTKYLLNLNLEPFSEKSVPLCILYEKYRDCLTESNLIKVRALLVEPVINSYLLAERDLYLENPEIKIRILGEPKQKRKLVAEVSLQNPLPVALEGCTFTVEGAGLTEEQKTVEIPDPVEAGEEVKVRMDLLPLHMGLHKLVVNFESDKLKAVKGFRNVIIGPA
Assay: biochemical
Details: fit to saturation kinetics model; 25° C., pH 6.95, 100 μM AL5; read-out: KI (converted)
Entries and their measured Ki follow.
State just the number; it will be interpreted in µM.

The cases that follow already have their Ki on record.
Query: Query Ki on hTG2 (Homo sapiens) for C=CC(=O)NCCCC[C@H](NC(=O)c1cccc(F)c1)C(=O)N1CCN(C(=O)c2cccc3ccccc23)CC1 [Inhibitor 63]
Response: 13.4

Query: Provide value of Ki for this record tested with hTG2 (Homo sapiens): C=CC(=O)NCCCC[C@H](NC(=O)c1ccccc1F)C(=O)N1CCN(C(=O)c2cccc3ccccc23)CC1 [Inhibitor 62]
Response: 10

Query: For the record C=CC(=O)NCCCC[C@H](NC(=O)c1ccccc1)C(=O)N1CCN(C(=O)c2cccc3ccccc23)CC1 [Inhibitor 61] , what value of Ki is listed for hTG2 (Homo sapiens)?
Response: 27.6

More entries:
Query: # query: Ki | item C=CC(=O)NCCCC[C@H](NC(=O)c1cn(C)cn1)C(=O)N1CCN(C(=O)c2cccc3ccccc23)CC1 [Inhibitor 22] | system: hTG2 (Homo sapiens)
Response: 22.3
